Tested on: PPARg homodimer (NR concentration 180 nM)
MEASUREMENT PROTOCOL: PBM binding z-score (relative to random genomic background probes); higher = stronger binding; sequences stand for … in GC…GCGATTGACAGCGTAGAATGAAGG
MEASURE: PBM binding z-score
Field format: numeric only.

Examples with their reported PBM binding z-score follow.
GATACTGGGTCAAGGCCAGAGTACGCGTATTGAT 1.49
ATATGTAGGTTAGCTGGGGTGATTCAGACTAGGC 1
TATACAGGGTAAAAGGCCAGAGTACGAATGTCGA 1.27
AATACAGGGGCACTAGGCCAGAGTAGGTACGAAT 0.784
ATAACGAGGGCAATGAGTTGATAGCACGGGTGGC 0.411

Returns the measured PBM binding z-score for the input sequence. Input: `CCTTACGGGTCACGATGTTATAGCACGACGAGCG`
2.01

What does the record list as PBM binding z-score for `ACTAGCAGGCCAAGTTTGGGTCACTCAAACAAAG` ?
0.284

Reported PBM binding z-score for `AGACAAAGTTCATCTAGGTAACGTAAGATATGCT` : what is it?
3.1

So what does the record say about PBM binding z-score for `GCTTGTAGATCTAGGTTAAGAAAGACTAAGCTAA` ?
-1.08

So what's the measured PBM binding z-score for this one? `CGTCAAAGTCCAACTAAGGTAACGTAAAGCACGC`
0.498

I would be grateful if you could share the reported PBM binding z-score for `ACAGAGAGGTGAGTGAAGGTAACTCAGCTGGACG` .
0.508

Find the recorded PBM binding z-score belonging to `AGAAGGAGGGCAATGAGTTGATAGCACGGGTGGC` and report it.
0.922

* * *

Tested on: PPARg:RXRa DBDmut IVT, anti-RXR (DBD mutation: RXRa K156A/R161A, NR concentration 270 nM, RXRa partner concentration 90 nM)
MEASUREMENT PROTOCOL: PBM binding z-score (relative to random genomic background probes); higher = stronger binding; sequences stand for … in GC…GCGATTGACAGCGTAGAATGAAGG
MEASURE: PBM binding z-score
Number only, please.

Check out these entries, answers already filled in.
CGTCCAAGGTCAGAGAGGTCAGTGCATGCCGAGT 3.03
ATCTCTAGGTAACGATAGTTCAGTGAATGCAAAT 3.41
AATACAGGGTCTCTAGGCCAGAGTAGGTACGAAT 0.633
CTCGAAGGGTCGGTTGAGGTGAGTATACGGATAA -0.575
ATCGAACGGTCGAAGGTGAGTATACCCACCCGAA -0.97

Form field: reported PBM binding z-score of `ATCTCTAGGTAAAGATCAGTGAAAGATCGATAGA`
1.79

* * *

Test system: PPARg:RXRa DBDmut IVT, anti-RXR (DBD mutation: RXRa K156A/R161A, NR concentration 270 nM, RXRa partner concentration 90 nM)
MEASUREMENT PROTOCOL: PBM binding z-score (relative to random genomic background probes); higher = stronger binding; sequences stand for … in GC…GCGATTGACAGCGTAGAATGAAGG
PBM binding z-score values for the sequences below.

Illustrative cases are given below, each with its answer.
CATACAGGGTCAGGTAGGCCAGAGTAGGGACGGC 0.321
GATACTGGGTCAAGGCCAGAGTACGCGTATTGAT 6.7
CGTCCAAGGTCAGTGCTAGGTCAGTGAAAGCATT 2.24
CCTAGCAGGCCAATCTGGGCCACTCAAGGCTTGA 2.99
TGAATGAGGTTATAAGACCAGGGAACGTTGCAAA 1.18

Need PBM binding z-score of `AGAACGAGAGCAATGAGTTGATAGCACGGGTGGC` , thanks.
0.0253

So what does the record say about PBM binding z-score for `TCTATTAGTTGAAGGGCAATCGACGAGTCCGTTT` ?
2.4

# query: PBM binding z-score of entry `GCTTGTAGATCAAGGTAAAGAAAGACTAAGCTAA`
0.905

Data request, read-out PBM binding z-score, for `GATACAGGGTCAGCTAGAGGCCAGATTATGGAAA`
0.866

Give its PBM binding z-score value. Item: `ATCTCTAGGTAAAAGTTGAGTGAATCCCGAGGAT`
2.05

For `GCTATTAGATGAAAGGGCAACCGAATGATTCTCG` , what is its reported PBM binding z-score?
0.363
